Exercise: state measured log10 of Ki for each of the compounds provided.
- Target: human glucocorticoid receptor (Homo sapiens)
- Construct: purified human recombinant full-length glucocorticoid receptor (2 nM); purchased Invitrogen Part #2893
- Measurement description: Glucocorticoid Receptor Binding Assay (I), fluorescence polarization competitor kit (Fluormone GS Red)
- Stated conditions: purified human recombinant full-length GR 2 nM, 1 nM Fluormone GS Red, FP; read-out: GR (Ki, nM) (GR Binding Assay (I))
- Procedure: Briefly, purified human recombinant full-length glucocorticoid receptor (2 nM) was mixed with fluorescently labeled glucocorticoid (1 nM Fluormone GS Red) in the presence or absence of test compound. After two hour incubation at room temperature in the dark, the fluorescence polarization (FP) of the samples was measured. […] Test compounds were analyzed in the concentration range from 8.5E-05 μM to 5 μM.
Hey, these are logged values: log10 of Ki, nM being the unit before logging.

Prompt: Given the compound CC(C)(C(=O)Nc1ccsc1)C(c1ccccc1)c1ccc2c(cnn2-c2ccc(F)cc2)c1 (stereo not shown) , what is its reported log10 of Ki?
Completion: 1.04

Prompt: So what does the record say about log10 of Ki for CC(C)(C(=O)NS(=O)(=O)C(F)(F)F)C(c1ccccc1)c1ccc2c(cnn2-c2ccc(F)cc2)c1 (stereo not shown) ?
Completion: 1.89

Prompt: Reported log10 of Ki for CC(C)(C(=O)Nc1nccs1)C(c1ccccc1)c1ccc2[nH]cc(C#N)c2c1 (stereo not shown) : what is it?
Completion: 0.82

Prompt: log10 of Ki lookup needed for CC(C)(C(=O)Nc1nncs1)C(c1ccccc1)c1ccc2c(cnn2CS(C)(=O)=O)c1 (stereo not shown) , thanks.
Completion: 1.81

Prompt: Return reported log10 of Ki; argument: COc1ccc(-n2ncc3cc(C(c4ccccc4)C(C)(C)C(=O)Nc4nncs4)ccc32)cc1 (stereo not shown)
Completion: 0.94

Prompt: What value of log10 of Ki has been recorded for this entry: Cc1nnc(NC(=O)C(C)(C)C(c2ccccc2)c2ccc3c(cnn3-c3ccc(F)cc3)c2)s1 (stereo not shown)
Completion: 1.32

Prompt: Entry under review: CCOC(=O)Cc1csc(NC(=O)C(C)(C)C(c2ccccc2)c2ccc3c(cnn3-c3ccc(F)cc3)c2)n1 (stereo not shown) . Reported log10 of Ki?
Completion: 1.30

Prompt: What measured log10 of Ki goes with CC(C)(C(=O)Nc1nncs1)C(c1ccccc1)c1ccc2c(cnn2CCCO)c1 (stereo not shown) ?
Completion: 1.23

Prompt: Look at this compound and give its reported log10 of Ki. CC(C)(C(=O)Nc1nccs1)C(c1ccccc1)c1ccc2c(ccn2-c2ccc(F)cc2)c1 (stereo not shown)
Completion: 1.11

Prompt: State the recorded log10 of Ki for this entry: COCCCn1ncc2cc(C(c3ccccc3)C(C)(C)C(=O)Nc3nncs3)ccc21 (stereo not shown)
Completion: 1.45

Prompt: Consider the compound CC(C)(C(=O)Nc1nnn[nH]1)C(c1ccccc1)c1ccc2c(cnn2-c2ccc(F)cc2)c1 (stereo not shown) and give its measured log10 of Ki.
Completion: 1.23

Prompt: Form field: reported log10 of Ki of CC(C)(C(=O)Nc1nncs1)C(c1ccccc1)c1ccc2c(cnn2CCO)c1 (stereo not shown)
Completion: 1.67

Prompt: Request the reported log10 of Ki associated with CC(C)(C(=O)Nc1nccs1)C(c1ccccc1)c1ccc2[nH]c(-c3ccccn3)cc2c1 (single isomer, unassigned) [111-enant A]
Completion: 1.86

Prompt: // log10 of Ki lookup, key: CC(C)Cn1ncc2cc(C(c3ccccc3)C(C)(C)C(=O)Nc3nncs3)ccc21 (stereo not shown)
Completion: 1.28

Prompt: Entry CC(C)(C(=O)Nc1ncc(Cl)s1)C(c1ccccc1)c1ccc2c(cnn2-c2ccc(F)cc2)c1 (stereo not shown) : reported log10 of Ki = ?
Completion: 1.20

Prompt: log10 of Ki lookup needed for CC(C)(C(=O)Nc1nncs1)C(c1ccccc1)c1ccc2nn(Cc3ccccc3)cc2c1 (stereo not shown) , thanks.
Completion: 1.66

====

- Target: human glucocorticoid receptor (Homo sapiens, UniProt P04150)
- Construct: purified human recombinant full-length glucocorticoid receptor (2 nM); purchased Invitrogen Part #2893
- Measurement description: Glucocorticoid Receptor Binding Assay (I), fluorescence polarization competitor kit (Fluormone GS Red)
- Stated conditions: purified human recombinant full-length GR 2 nM, 1 nM Fluormone GS Red, FP; read-out: GR (Ki, nM) (GR Binding Assay (I))
- Protocol: Briefly, purified human recombinant full-length glucocorticoid receptor (2 nM) was mixed with fluorescently labeled glucocorticoid (1 nM Fluormone GS Red) in the presence or absence of test compound. After two hour incubation at room temperature in the dark, the fluorescence polarization (FP) of the samples was measured. […] Test compounds were analyzed in the concentration range from 8.5E-05 μM to 5 μM.
Readout: Ki (nM)
Give the value in nM but do not write nM after it.

Prompt: Value lookup for Ki; key = CC(C)(C(=O)Nc1nccs1)C(c1ccccc1)c1ccc2c(cnn2-c2ccncc2)c1 (centres unmarked)
Completion: 11

Prompt: Look up Ki for this molecule: CC(C)(C)CNC(=O)C(C)(C)C(c1ccccc1)c1ccc2c(cnn2-c2ccc(F)cc2)c1 (centres unmarked)
Completion: 2.9

Prompt: Need Ki of CC(C)n1ncc2cc(C(c3ccccc3)C(C)(C)C(=O)Nc3nccs3)ccc21 (centres unmarked) , thanks.
Completion: 14

Prompt: Form field: reported Ki of Cc1cnc(NC(=O)C(C)(C)C(c2ccccc2)c2ccc3c(cnn3-c3ccc(F)cc3)c2)s1 (centres unmarked)
Completion: 11

Prompt: Request the reported Ki associated with CC(C)(C(=O)Nc1nncs1)C(c1ccccc1)c1ccc2c(cnn2-c2ccccc2)c1 (centres unmarked)
Completion: 5

Prompt: Item CC(C)(C(=O)NCC(F)(F)F)C(c1ccccc1)c1ccc2c(cnn2-c2ccc(F)cc2)c1 (centres unmarked) has what recorded Ki?
Completion: 3

Prompt: Given the entry CC(C)(C(=O)Nc1nncs1)C(c1ccccc1)c1ccc2nn(CCCCO)cc2c1 (centres unmarked) , report its measured Ki.
Completion: 23

Prompt: Which measured Ki value corresponds to CC(C)(C(=O)Nc1nccs1)C(c1ccccc1)c1cnc2c(cnn2-c2ccccc2)c1 (centres unmarked) ?
Completion: 3.6

====

- Target: human full-length glucocorticoid receptor (Homo sapiens, UniProt P04150)
- Construct: a cell lysate containing recombinantly expressed human full-length glucocorticoid receptor; purchased PanVera Co., Madison, Wis; P2816
- Measurement description: Glucocorticoid Receptor Binding Assay (II), fluorescence polarization competitor kit (Fluormone GS1)
- Stated conditions: cell lysate with recombinant human full-length GR, 1 nM Fluormone GS1, FP
Readout: Ki (nM)
Answer with a number only, understood to be in nM.

Prompt: For the compound CCOC(=O)c1cccc(-n2ncc3cc([C@H](c4ccccc4)C(C)(C)C(=O)Nc4nncs4)ccc32)c1 (stereo in doubt) [Example 95] , what Ki is on record?
Completion: 496

Prompt: Can you look up the measured Ki of CC(C)(C(=O)Nc1nncs1)C(c1ccccc1)c1ccc2c(cnn2-c2ccc(C(=O)O)cc2)c1 (stereo not shown) [Example 89] for me?
Completion: 27

Prompt: Could you share which Ki value was measured for Cc1ccc(CC(c2ccc3c(cnn3-c3ccc(F)cc3)c2)C(C)(C)C(=O)NC2CCCC2O)cc1 (stereo not shown) [Example 125] ?
Completion: 9.9

Prompt: Give the measured Ki of Cc1ccccc1C(c1ccc2c(cnn2-c2ccc(F)cc2)c1)C(C)(C)C(=O)Nc1nccs1 (stereo not shown) [Example 40] .
Completion: 1.6

====

- Target: human glucocorticoid receptor (Homo sapiens)
- Construct: purified human recombinant full-length glucocorticoid receptor (2 nM); purchased Invitrogen Part #2893
- Sequence (P04150 1-777): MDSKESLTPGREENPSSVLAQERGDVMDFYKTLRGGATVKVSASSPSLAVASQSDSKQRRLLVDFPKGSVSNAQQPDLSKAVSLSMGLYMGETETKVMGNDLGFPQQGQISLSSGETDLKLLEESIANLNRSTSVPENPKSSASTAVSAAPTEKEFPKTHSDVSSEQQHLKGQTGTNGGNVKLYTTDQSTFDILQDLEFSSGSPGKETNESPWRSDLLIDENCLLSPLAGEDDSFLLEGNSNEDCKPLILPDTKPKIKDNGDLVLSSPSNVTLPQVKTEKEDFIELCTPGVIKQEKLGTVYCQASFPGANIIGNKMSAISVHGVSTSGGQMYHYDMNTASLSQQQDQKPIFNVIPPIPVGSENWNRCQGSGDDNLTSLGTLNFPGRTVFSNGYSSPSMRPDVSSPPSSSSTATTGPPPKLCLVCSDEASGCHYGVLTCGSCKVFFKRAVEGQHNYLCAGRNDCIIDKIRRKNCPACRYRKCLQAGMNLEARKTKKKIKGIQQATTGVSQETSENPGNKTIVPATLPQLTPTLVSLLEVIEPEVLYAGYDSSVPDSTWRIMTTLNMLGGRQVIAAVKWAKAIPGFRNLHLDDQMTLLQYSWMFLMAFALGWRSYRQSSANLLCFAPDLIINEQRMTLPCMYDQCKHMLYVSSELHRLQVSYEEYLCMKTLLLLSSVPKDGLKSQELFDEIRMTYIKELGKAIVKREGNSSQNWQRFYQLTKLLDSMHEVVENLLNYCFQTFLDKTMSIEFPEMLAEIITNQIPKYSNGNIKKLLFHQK
- Measurement description: Glucocorticoid Receptor Binding Assay (I), fluorescence polarization competitor kit (Fluormone GS Red)
- Stated conditions: purified human recombinant full-length GR 2 nM, 1 nM Fluormone GS Red, FP; read-out: GR (Ki, nM) (GR Binding Assay (I))
- Procedure: Briefly, purified human recombinant full-length glucocorticoid receptor (2 nM) was mixed with fluorescently labeled glucocorticoid (1 nM Fluormone GS Red) in the presence or absence of test compound. After two hour incubation at room temperature in the dark, the fluorescence polarization (FP) of the samples was measured. […] Test compounds were analyzed in the concentration range from 8.5E-05 μM to 5 μM.
Readout: Ki (nM)
# output: bare number, implied unit nM

Prompt: I'd like to know its Ki. The compound in question is CC(C)(C(=O)Nc1nncs1)C(c1ccccc1)c1ccc2c(cnn2Cc2ccccc2)c1 (stereo not shown)
Completion: 14

Prompt: Would you mind telling me what Ki value was observed for `CC(C)(Cc1ccc2c(cnn2-c2ccc(F)cc2)c1)C(=O)Nc1nncs1` ?
Completion: 84

Prompt: # query: Ki of entry CC(C)(C(=O)Nc1nccs1)C(c1ccccc1)c1ccc2c(cnn2C2CCOCC2)c1 (stereo not shown)
Completion: 10

Prompt: // Ki lookup, key: `CC(C)(C(=O)Nc1nncs1)C(C)(C)c1ccc2c(cnn2-c2ccc(F)cc2)c1`
Completion: 5.8

Prompt: Find the recorded Ki belonging to CCOC(=O)c1csc(NC(=O)C(C)(C)C(c2ccccc2)c2ccc3c(cnn3-c3ccc(F)cc3)c2)n1 (stereo not shown) and report it.
Completion: 23

Prompt: # input compound: CC(C)(C(=O)Nc1nnc(C(F)(F)F)s1)C(c1ccccc1)c1ccc2c(cnn2-c2ccc(F)cc2)c1 (stereo not shown) ; wanted: its Ki
Completion: 19

Prompt: Returns the measured Ki for the input compound. Input: CC(C)(C(=O)Nc1nccs1)C(c1ccccc1)c1ccc2[nH]ccc2c1 (stereo not shown)
Completion: 7.8

Prompt: // Ki lookup, key: O=C(Nc1nccs1)C1CC1c1ccc2c(cnn2-c2ccc(F)cc2)c1 (stereo not shown)
Completion: 248

Prompt: Can you share its Ki? I mean this compound: CC(C)(C(=O)Nc1nccs1)C(c1ccccc1)c1ccc2[nH]ncc2c1 (stereo not shown)
Completion: 7.8

Prompt: Please give the measured Ki for this compound: CC(C)(C(=O)Nc1nc[nH]n1)C(c1ccccc1)c1ccc2c(cnn2-c2ccc(F)cc2)c1 (stereo not shown)
Completion: 11

Prompt: Which Ki value is on record for CC(C)(C(=O)Nc1nccs1)C(c1cc[n+]([O-])cc1)c1ccc2c(cnn2-c2ccc(F)cc2)c1 (stereo not shown) ?
Completion: 301

Prompt: Look up Ki: CC(C)(C(=O)Nc1nncs1)C(c1ccccc1)c1ccc2c(cnn2-c2ccc(O)cc2)c1 (stereo not shown)
Completion: 7.2

Prompt: Record request: Ki value, item CC(C)CCn1cc2cc(C(c3ccccc3)C(C)(C)C(=O)Nc3nncs3)ccc2n1 (stereo not shown)
Completion: 25

Prompt: Entry CC(C)(C(=O)Nc1nccs1)C(c1ccccc1)c1ccc2[nH]cc(C=O)c2c1 (stereo not shown) : reported Ki = ?
Completion: 59

Prompt: Entry under review: CSc1nnc(NC(=O)C(C)(C)C(c2ccccc2)c2ccc3c(cnn3-c3ccc(F)cc3)c2)s1 (stereo not shown) . Reported Ki?
Completion: 29

Prompt: State the recorded Ki for this entry: CN1CCC(n2ncc3cc(C(c4ccccc4)C(C)(C)C(=O)Nc4nccs4)ccc32)CC1 (stereo not shown)
Completion: 543

Every entry's value here was drawn from patent US8067447B2.
